System: SW 1271 complex spheroids, viability
run description: Anticancer human tumor SW 1271 cell line growth inhibition [LSD1]; active means viability on the fitted dose curve at most 10% of control; inactive means the rest;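 further: spheroids exposed to agents for 7 days before luminescence read; 100% = DMSO vehicle control viability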
setup conditions: second compound 1 µM; first compound 0.00316 µM
Choose one outcome from this list and give only that: 1.0 for active, 0.0 for inactive

Recorded results for 2 compounds are shown here.
{"columns": ["compound", "class label"],
 "data": [
  ["Nc1ncn(C2CC(O)C(CO)O2)c(=O)n1 (stereo unspecified) + NC1CC1c1ccc(-c2cccc(O)c2)cc1", 0.0],
  ["CC1COCCN1c1cc(-c2ccnn2C)c2ccnc(-c3ccn[nH]3)c2n1 (stereo unspecified) + NC1CCC(NC2CC2c2ccccc2)CC1", 0.0]
]}

INPUT: Field: outcome | Entry: CC(C)CC(NC(=O)CNC(=O)c1cc(Cl)ccc1Cl)B1OC(=O)CC(CC(=O)O)(C(=O)O)O1 (stereo unspecified) + NC1CCC(NC2CC2c2ccccc2)CC1
OUTPUT: 0.0

INPUT: Now consider CC(C)CC(NC(=O)CNC(=O)c1cc(Cl)ccc1Cl)B1OC(=O)CC(CC(=O)O)(C(=O)O)O1 (stereo unspecified) + NC1CC1c1ccc(-c2cccc(O)c2)cc1 and answer again.
OUTPUT: 0.0

INPUT: Now consider COc1cc(Nc2ncc3c(n2)-c2ccc(Cl)cc2C(c2c(F)cccc2OC)=NC3)ccc1C(=O)O + NC1CCC(NC2CC2c2ccccc2)CC1 and answer again.
OUTPUT: 0.0

INPUT: Now consider COc1cc(Nc2ncc3c(n2)-c2ccc(Cl)cc2C(c2c(F)cccc2OC)=NC3)ccc1C(=O)O + NC1CC1c1ccc(-c2cccc(O)c2)cc1 and answer again.
OUTPUT: 0.0

INPUT: Now consider CC(C)CC(NC(=O)C(Cc1ccccc1)NC(=O)c1cnccn1)B(O)O (stereo unspecified) + NC1CCC(NC2CC2c2ccccc2)CC1 and answer again.
OUTPUT: 1.0

INPUT: Now consider Nc1ncn(C2CC(O)C(CO)O2)c(=O)n1 (stereo unspecified) + NC1CCC(NC2CC2c2ccccc2)CC1 and answer again.
OUTPUT: 0.0

INPUT: Now consider O=C(C=Cn1cnc(-c2cc(C(F)(F)F)cc(C(F)(F)F)c2)n1)NNc1cnccn1 + NC1CCC(NC2CC2c2ccccc2)CC1 and answer again.
OUTPUT: 0.0

###

Reported values of viability, T/C for individual entries
Tested on: SW 1271 complex spheroids, viability
run description: Anticancer human tumor SW 1271 cell line growth inhibition [LSD1];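 further: spheroids exposed to agents for 7 days before luminescence read; 100% = DMSO vehicle control viability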
setup conditions: second compound 0.1 µM; first compound 10 µM; hits give low values
Form entry: value (%) — number only.

The following molecules have reported results that may help.
{"columns": ["molecule", "metric", "readout number"],
 "data": [
  ["CC(C)c1c(-c2ccccc2)nc2c(C#N)c[nH]n2c1=O + NC1CC1c1ccc(-c2cccc(O)c2)cc1", "viability, T/C", 72.9],
  ["CC1(C)CCC(CN2CCN(c3ccc(C(=O)NS(=O)(=O)c4ccc(NCC5CCOCC5)c([N+](=O)[O-])c4)c(Oc4cnc5[nH]ccc5c4)c3)CC2)=C(c2ccc(Cl)cc2)C1 + NC1CCC(NC2CC2c2ccccc2)CC1", "viability, T/C", 0.57],
  ["COc1ccc([C@@H](O)c2cc(-c3ncnc4cc(N5CCOCC5)ccc34)c(F)cc2Cl)nn1 + NC1CCC(NC2CC2c2ccccc2)CC1", "viability, T/C", 21]
]}

// moving on: another record for viability, T/C
INPUT: State its viability, T/C on SW 1271 complex spheroids, viability: COc1ccc([C@@H](O)c2cc(-c3ncnc4cc(N5CCOCC5)ccc34)c(F)cc2Cl)nn1 + NC1CC1c1ccc(-c2cccc(O)c2)cc1
OUTPUT: 21.9

Origin of the recorded values: PubChem BioAssay AID1918941
